target: HLA-A*02:01 (Homo sapiens, UniProt P04439, D140Y/D185E/D98H/E176V/E277Q/G131W/G231S/I119V/I121R/I166T/I218V/L300P/L318F/N151K/N90K/P208A/P217A/Q86G/Q94H/R138H/R169H/T345S); assay: MHC binding assay: UV-ligand exchange with beta2m ELISA (peptide exchange yield); settings: binding to HLA-A*02:01, β2m ELISA
READOUT: Peptide exchange (MHC class I binding score, peptide exchange yield)

# SUBSTANCE, RESULT
rows = [
    ("26 (VLDGKVAVV; listed as Homo sapiens) [compound 26]", "+++ (= ≥50% = +++)"),
    ("55 (HLFDKIIKI; listed as Homo sapiens) [compound 55]", "+++ (= ≥50% = +++)"),
    ("220 (ALSELERVL; listed as Homo sapiens) [compound 220]", "+++ (= ≥50% = +++)"),
    ("89 (SLAETIFIV; listed as Homo sapiens) [compound 89]", "+++ (= ≥50% = +++)"),
    ("225 (FLPQPVPLSV; listed as Homo sapiens) [compound 225]", "+++ (= ≥50% = +++)"),
]

Peptide exchange (MHC class I binding score, peptide exchange yield) recorded for this substance, 218 (SLTGANITV; listed as Homo sapiens) [compound 218] , is +++ (= ≥50% = +++)

Peptide exchange (MHC class I binding score, peptide exchange yield) recorded for this substance, 274 (TLYNPERTITV; listed as Homo sapiens) [compound 274] , is +++ (= ≥50% = +++)

Peptide exchange (MHC class I binding score, peptide exchange yield) recorded for this substance, 169 (ALADLSVAV; listed as Homo sapiens) [compound 169] , is +++ (= ≥50% = +++)
